- ASSAY_INFO: Pharmacokinetics of six cocktail probe drugs in rat plasma (UPLC-MS/MS) after 7-day MGCD0103 or saline
- SETUP_CONDITIONS: High group: MGCD0103 80 mg/kg i.g. 7 days, then probe 10 mg/kg (tolbutamide 1 mg/kg) i.g.; rat plasma; mean ± SD, n = 10
QUANTITY: AUC(0–∞) (ng/mL∗h)
Could you give me the number in ng/mL∗h? Just the number is fine.

# COMPOUND, UNITS_SYMBOL, ASSAY_RESULT
data = [
    ("COc1ccc2[nH]c([S+]([O-])Cc3ncc(C)c(OC)c3C)nc2c1 (stereo not drawn)", "ng/mL∗h", 731.8),
]

Pending compound:
(Q) Name the recorded AUC(0–∞) of the item CC(NC(C)(C)C)C(=O)c1cccc(Cl)c1 (stereo not drawn) in your answer.
(A) 235.2
